- Test system: GBM cell line (human cervical carcinoma cells of ME 180 (GBM8401))
- Measurement protocol: Growth inhibition assay, GBM cell line
- Type: cell-based
- Condition info: 48 hours, cell counting, read-out: IC50 GBM (concentration required to inhibit cell growth by 50% relative to controls)
pIC50: −log10 of the molar value.
# binning rule on pIC50: LOW (below 4), MID (4 to below 5), HIGH (5 or more)

Ask | # bin label for O=C(CBr)Oc1c2cccc(Cl)c2cc2cccc(Cl)c12 [Compound 3b]
Reply | MID

Ask | # bin label for Cc1cccc(C(=O)Oc2c3cccc(Cl)c3cc3cccc(Cl)c23)c1 [Compound 3n, 1,5-Dichloro-9-(m-toluyloxy)-anthracene]
Reply | LOW

Ask | # bin label for CCCCCC(=O)Oc1c2cccc(Cl)c2cc2cccc(Cl)c12 [Compound 3k]
Reply | HIGH

Ask | # bin label for O=C(Oc1c2cccc(Cl)c2cc2cccc(Cl)c12)C(Cl)Cl [Compound 3g]
Reply | HIGH

Ask | # bin label for O=C(CCc1ccccc1)Oc1c2cccc(Cl)c2cc2cccc(Cl)c12 [Compound 3w]
Reply | LOW

###

- Tested on: iron-induced lipid peroxidation in rat brain homogenates
- Measurement protocol: Lipid peroxidation assay (TBA)
- Type: biochemical, Wistar rats
- Condition info: 10 μM compound, ferrous ion 200 μM, 37° C. 30 min
Rule: Fulfilled for % Inhibition (10 μM), relative percentage of inhibition not less than 30%, Not fulfilled for anything less.

Reference set (5 entries):
Molecule: O=C(Cc1ccccc1)Oc1c2cccc(Cl)c2cc2cccc(Cl)c12 [Compound 3v]
Class: Fulfilled
//
Molecule: CC(Cl)C(=O)Oc1c2cccc(Cl)c2cc2cccc(Cl)c12 (centres unmarked) [Compound 3f]
Class: Fulfilled
//
Molecule: O=C(CCCCl)Oc1c2cccc(Cl)c2cc2cccc(Cl)c12 [Compound 3j]
Class: Not fulfilled
//
Molecule: Cc1cccc(C(=O)Oc2c3cccc(Cl)c3cc3cccc(Cl)c23)c1 [Compound 3n, 1,5-Dichloro-9-(m-toluyloxy)-anthracene]
Class: Not fulfilled
//
Molecule: CC(=O)Oc1c2cccc(Cl)c2cc2cccc(Cl)c12 [Compound 3a, 1,5-Dichloro-9-acetyloxy-anthracene]
Class: Fulfilled

Ask | Would you say COc1cc(Cl)ccc1C(=O)Oc1c2cccc(Cl)c2cc2cccc(Cl)c12 [Compound 3t] shows % Inhibition (10 μM), relative percentage of inhibition at minimum 30%?
Reply | Not fulfilled

###

- System: GBM cell line (human cervical carcinoma cells of ME 180 (GBM8401))
- Measurement protocol: Growth inhibition assay, GBM cell line
- Assay type: cell-based
- Condition info: 48 hours, cell counting, read-out: IC50 GBM (concentration required to inhibit cell growth by 50% relative to controls)
Metric: log10(IC50) (log10 of the value in µM)
Answers are given as log10 of IC50 in µM.

Sample answers from the record:
Compound: O=C(Cc1ccccc1)Oc1c2cccc(Cl)c2cc2cccc(Cl)c12
log10(IC50): 2.04
//
Compound: O=C(Oc1c2cccc(Cl)c2cc2cccc(Cl)c12)c1cccc(Cl)c1
log10(IC50): 1.07
//
Compound: Cc1ccccc1C(=O)Oc1c2cccc(Cl)c2cc2cccc(Cl)c12
log10(IC50): 2.03
//
Compound: O=C(CCl)Oc1c2cccc(Cl)c2cc2cccc(Cl)c12
log10(IC50): 2.03
//
Compound: CCC(=O)Oc1c2cccc(Cl)c2cc2cccc(Cl)c12
log10(IC50): 1.24

Ask | Determine its reported log10(IC50): COc1cc(Cl)ccc1C(=O)Oc1c2cccc(Cl)c2cc2cccc(Cl)c12
Reply | 1.03

Ask | Determine its reported log10(IC50): CC(Cl)C(=O)Oc1c2cccc(Cl)c2cc2cccc(Cl)c12 (stereo not shown)
Reply | 2.10

Ask | Determine its reported log10(IC50): CC(C)C(=O)Oc1c2cccc(Cl)c2cc2cccc(Cl)c12
Reply | 2.29

Ask | Determine its reported log10(IC50): CO[C@@]12[C@H](COC(N)=O)C3=C(C(=O)C(C)=C(N)C3=O)N1C[C@@H]1N[C@@H]12 [Mitomycin-C, reference compound]
Reply | 3.28

Ask | Determine its reported log10(IC50): O=C(CCCBr)Oc1c2cccc(Cl)c2cc2cccc(Cl)c12
Reply | 2.31

Ask | Determine its reported log10(IC50): O=C(CCCCl)Oc1c2cccc(Cl)c2cc2cccc(Cl)c12
Reply | 0.04

Ask | Determine its reported log10(IC50): O=C(Oc1c2cccc(Cl)c2cc2cccc(Cl)c12)c1ccc(Cl)cc1Cl
Reply | 1.94

Ask | Determine its reported log10(IC50): CCCC(=O)Oc1c2cccc(Cl)c2cc2cccc(Cl)c12
Reply | 2.76
